Source of measurements: the supplement of paper PMC9233669

system: biotinyl-Leu-oxazolone; experiment: self-aminoacylation, catalytic enhancement (BLO) (fold over background); higher = more active; k-Seq, kA / k0A0; sequences stand for … in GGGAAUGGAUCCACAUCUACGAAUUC…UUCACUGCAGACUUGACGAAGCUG
This sample holds only a part of the variants without activity.
Item-by-item account of self-aminoacylation
assay-endpoint: self-aminoacylation

>>> reported_measurement("CCCCACUUCAAGCGAUCGGUC [Fam1B.1 aminoacylation ribozyme variant]")
1.68
>>> reported_measurement("AUGCACCUAGGUUAUCGGGUG [Fam2.2 aminoacylation ribozyme variant]")
4.46
>>> reported_measurement("AAGUUUGCUAAUUGUUGCAAG [Fam3.1 aminoacylation ribozyme variant]")
0.945
>>> reported_measurement("CUAGUUCAAAGAAUCGGUCUG [Fam1A.1 aminoacylation ribozyme variant]")
1.14
>>> reported_measurement("CCACACUUCAAGCAAUCCGUG [Fam1B.1 aminoacylation ribozyme variant]")
5.32
>>> reported_measurement("AUUCACCGAGAUCAUCGGGUG [Fam2.2 aminoacylation ribozyme variant]")
8.53
>>> reported_measurement("AUUCAUUUAGGUCAUCGGGUG [Fam2.2 aminoacylation ribozyme variant]")
6.72
>>> reported_measurement("AAGUUUGCUAAUAGUAGCAAU [Fam3.1 aminoacylation ribozyme variant]")
1.11
>>> reported_measurement("AUUACCCUGAGCAUCGAGUGA [Fam2.1 aminoacylation ribozyme variant]")
3.99
>>> reported_measurement("CCACACUUCAAGCUAUAGGUC [Fam1B.1 aminoacylation ribozyme variant]")
0.489
>>> reported_measurement("CCACACUUCAUGCAAUCGAUC [Fam1B.1 aminoacylation ribozyme variant]")
0.489
>>> reported_measurement("AUUCACCUAGGGCAUUGGGUG [Fam2.2 aminoacylation ribozyme variant]")
8.05
>>> reported_measurement("CUACUACAAACAAUCCGUCUG [Fam1A.1 aminoacylation ribozyme variant]")
0.68
>>> reported_measurement("AUUCACCUAGGUAAGCGGGUG [Fam2.2 aminoacylation ribozyme variant]")
2.75
>>> reported_measurement("CCAAAGUUCAAGCAAUCGGUC [Fam1B.1 aminoacylation ribozyme variant]")
1.28
>>> reported_measurement("CCACACUUUAAGCAAUCGGAC [Fam1B.1 aminoacylation ribozyme variant]")
0.737
>>> reported_measurement("CUAUUUCAAACAAUAGGUCUG [Fam1A.1 aminoacylation ribozyme variant]")
1.08
>>> reported_measurement("AUUACCCUGGUCCUCGAGUGA [Fam2.1 aminoacylation ribozyme variant]")
3.55
>>> reported_measurement("CUACUGCAAACAAUCGGCCUG [Fam1A.1 aminoacylation ribozyme variant]")
2.27
>>> reported_measurement("AAGUUUGGUAAUAGUCGCACG [Fam3.1 aminoacylation ribozyme variant]")
1.45
>>> reported_measurement("AAGUUGGCUAAUAGUCGCACG [Fam3.1 aminoacylation ribozyme variant]")
1.81
>>> reported_measurement("AAGUUUGCUAAUCGCCGCAAG [Fam3.1 aminoacylation ribozyme variant]")
1.54
>>> reported_measurement("AAGUUUGCUUAUAGUCGCCAG [Fam3.1 aminoacylation ribozyme variant]")
0.933
>>> reported_measurement("AAGUGUGCUAUUAGUCGCAAG [Fam3.1 aminoacylation ribozyme variant]")
0.947
>>> reported_measurement("CGACACUUCACGCAAUCGGUC [Fam1B.1 aminoacylation ribozyme variant]")
2.15
>>> reported_measurement("AUUCACCUAAGUCGUCGGGUG [Fam2.2 aminoacylation ribozyme variant]")
2.55
>>> reported_measurement("AUUCGCCUAGGGCAUCGGGUG [Fam2.2 aminoacylation ribozyme variant]")
5.64
>>> reported_measurement("AUUACCUUGGUCAUCGAGAGA [Fam2.1 aminoacylation ribozyme variant]")
0.907
>>> reported_measurement("CUACCUCAAACAAUCGGUCGG [Fam1A.1 aminoacylation ribozyme variant]")
1.55
>>> reported_measurement("CCUCACCUCAAGCAAUCGGUC [Fam1B.1 aminoacylation ribozyme variant]")
0.963
>>> reported_measurement("AUUCACCGAUGUCAUCGGGUG [Fam2.2 aminoacylation ribozyme variant]")
10.8
>>> reported_measurement("AUUCACGUAGGUCACCGGGUG [Fam2.2 aminoacylation ribozyme variant]")
8.29
>>> reported_measurement("AUUCACCUAGUUCAUCGGGCG [Fam2.2 aminoacylation ribozyme variant]")
1.96
>>> reported_measurement("AUUAUUCUGGUCAUCGAGUGA [Fam2.1 aminoacylation ribozyme variant]")
6.25
>>> reported_measurement("AUUGCCCCGGUCAUCGAGUGA [Fam2.1 aminoacylation ribozyme variant]")
6.75
